Provenance of the data: the supplement of paper PMC10567573

B1: FAM107A (parent)
chain: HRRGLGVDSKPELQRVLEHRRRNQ

Variants of: B1
Assay: protein stability index of a GFP-peptide fusion (GPS, HEK-293T) (PSI 1-6); higher = more stable;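 further: lentivirally expressed fusions sorted by FACS into six bins by GFP to DsRed ratio, PSI derived from sequencing read proportions per bin multiplied by bin number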
Settings: c terminus: a fixed tail appended
Here, each record is paired with measured protein stability index data.

>>> result("E12D")
2.18
>>> result("R20D")
3.98
>>> result("Q24V")
3.24
>>> result("N23R")
3.26
>>> result("L5E")
4.34
>>> result("R21Y")
3.98
>>> result("N23E")
3.52
>>> result("V7R")
4.39

Name the reported protein stability index value associated with the variant `L5A`
4
